Test: in vitro
Conditions: human
*1 amine or outer side, *2 acyl side, *3 side chain or, on linkers, in order; H or OH if unused. Where a SMILES comes first, the peptide text is derived from it. [ ]: non-standard residue; d: D form. Phe(ol) = N[CH](CO)Cc1ccccc1; CO = O=C([*:1])[*:2]
Attribute: CC50
value type: CC50

compound: NC(=O)c1ncn([C@@H]2O[C@H](CO)[C@@H](O)[C@H]2O)n1
experimental value: > 410 µM
//
compound: CC(C)C(NC(=O)C(CCCNC(=N)N)NC(=O)NC(Cc1ccccc1)C(=O)O)C(=O)NC(CO)Cc1ccccc1 (stereo not drawn) [Omicsynin A3, Chymostatinol A] ({Phe-CO}-Arg-Val-[Phe(ol)]; configuration not given here)
experimental value: > 168 µM
//
compound: CC(C)[C@H](NC(=O)[C@H](CCCNC(=N)N)NC(=O)N[C@@H](Cc1ccccc1)C(=O)O)C(=O)N[C@H](C=O)CCCNC(=N)N [antipain, Antipain] ({Phe-CO}-Arg-Val-Arg-aldehyde)
experimental value: > 165 µM
//
compound: CC(C)C[C@H](NC(=O)[C@@H](NC(=O)N[C@@H](Cc1ccccc1)C(=O)O)[C@@H]1CCN=C(N)N1)C(=O)N[C@H](C=O)Cc1ccccc1
experimental value: > 165 µM

----------
System: Madin-Darby canine kidney cells (MDCK)
Settings: read-out: TC50; Table 9; CPE method
*1 amine or outer side, *2 acyl side, *3 side chain or, on linkers, in order; H or OH if unused. Where a SMILES comes first, the peptide text is derived from it. CO = O=C([*:1])[*:2]

molecule: CC(C)[C@H](NC(=O)[C@H](CCCNC(=N)N)NC(=O)N[C@@H](Cc1ccccc1)C(=O)O)C(=O)N[C@H](C=O)CCCNC(=N)N [Omicsynin B4, Antipain] ({Phe-CO}-Arg-Val-Arg-aldehyde)
CC50: > 331 µM

----------
Assay: in vitro
Settings: dog
*1 amine or outer side, *2 acyl side, *3 side chain or, on linkers, in order; H or OH if unused. Where a SMILES comes first, the peptide text is derived from it. [ ]: non-standard residue; d: D form. Phe(ol) = N[CH](CO)Cc1ccccc1; CO = O=C([*:1])[*:2]

compound: CC(C)C[C@H](NC(=O)[C@@H](NC(=O)N[C@@H](Cc1ccccc1)C(=O)O)[C@@H]1CCN=C(N)N1)C(=O)N[C@H](C=O)Cc1ccccc1
CC50: > 329 µM
//
compound: CC(C)C(NC(=O)C(CCCNC(=N)N)NC(=O)NC(Cc1ccccc1)C(=O)O)C(=O)NC(CO)Cc1ccccc1 (stereo not drawn) [Omicsynin A3, Chymostatinol A] ({Phe-CO}-Arg-Val-[Phe(ol)]; configuration not given here)
CC50: > 336 µM
//
compound: NC(=O)c1ncn([C@@H]2O[C@H](CO)[C@@H](O)[C@H]2O)n1
CC50: > 819 µM
//
compound: CC(C)[C@H](NC(=O)[C@H](CCCNC(=N)N)NC(=O)N[C@@H](Cc1ccccc1)C(=O)O)C(=O)N[C@H](C=O)CCCNC(=N)N [antipain, Antipain] ({Phe-CO}-Arg-Val-Arg-aldehyde)
CC50: > 331 µM

----------
System: coronavirus HCoV-229E
Assay: CPE inhibition assay against HCoV-229E in Huh7.5 cells
Type: cell-based
Details: Table 10; Huh7.5 cells, 100 TCID50; read-out: HCoV-229E IC50
pIC50: −log10 of the molar value. *1 amine or outer side, *2 acyl side, *3 side chain or, on linkers, in order; H or OH if unused. Where a SMILES comes first, the peptide text is derived from it. CO = O=C([*:1])[*:2]
value type: pIC50

compound: CC(C)[C@H](NC(=O)[C@H](CCCNC(=N)N)NC(=O)N[C@@H](Cc1ccccc1)C(=O)O)C(=O)N[C@H](C=O)CCCNC(=N)N [Omicsynin B4, Antipain] ({Phe-CO}-Arg-Val-Arg-aldehyde)
target desc: coronavirus HCoV-229E
value type: pIC50
experimental value: 6.05
